Values from paper PMC7587396

Overview of reported melting point across a group of compounds:
assay.endpoint: melting point

compound: NC(=O)N(O)C(=O)c1ccccc1 [Compound 38, 1-Hydroxy-1-(benzoyl)urea]
assay.result: 127 to 129 °C

compound: O=C(/C=C/c1ccccc1O)c1cc2ccccc2s1 [Compound 14]
assay.result: 178 to 180 °C

compound: O=C(OCCc1ccccc1)c1cc2ccccc2s1 [Compound 5, Phenethyl 1-benzothiophene-2-carboxylate]
assay.result: 61 to 62 °C

compound: NC(=O)N(O)C(=O)Cc1ccccc1 [Compound 39, 1-Hydroxy-1-(2-phenylacetyl)urea]
assay.result: 133 to 135 °C

compound: NC(=O)N(O)C(=O)/C=C/c1ccccc1 [Compound 33, 1-Hydroxy-1-((E)-3-phenylacryloyl)urea]
assay.result: 130 to 132 °C

compound: O=C(/C=C/c1ccccc1)c1cc2ccccc2s1 [Compound 11]
assay.result: 118 to 120 °C

compound: COc1ccc(/C=C/C(=O)N(O)C(N)=O)cc1O [Compound 34]
assay.result: 170 to 172 °C
